tested on: MDA-MB-468 breast; test: NCI tumour cell line growth inhibition, 48 h; in the data active = GI50 below about 0.43 µM; inactive = the rest
Outcome (select one): T (active), F (inactive)

For "Cc1cc(N(CCCNc2ccnc3cc(Cl)ccc23)Cc2ccc3c(c2)OCO3)nc(N2CCCCC2)n1" , which call appears in the assay record?
F

Call for entry "Cn1cnc2c(F)c(Nc3ccc(Br)cc3F)c(C(=O)NOCCO)cc21" :
F

Call for entry "COc1cc(NC(=O)NCc2ccco2)ccc1-c1ccc(NC(=O)NCc2ccco2)cc1OC" :
F

Write down the call the test reported for this compound. Item: "CCNNC(=O)[C@@H]1[C@H](c2cc(OC)c(OC)c(OC)c2)c2cc3c(cc2[C@H](O)[C@H]1CO)OCO3"
T

---

tested on: MDA-MB-468 breast; experiment: NCI tumour cell line growth inhibition, 48 h; in the data active = GI50 below about 0.43 µM; inactive = the rest
Mark one answer only. Choices: class 1 (active), class 0 (inactive)

Record request — test call for "C[C@@H](COCCC(=O)N1CCN(c2ncc(C(F)(F)F)cn2)CC1)Nc1cn[nH]c(=O)c1C(F)(F)F"
class 0

Test call for this molecule, please: "CC(C)C[C@H](NC(=O)[C@@H](NC(=O)c1cccc(-c2ccccc2)n1)[C@@H](C)O)B(O)O"
class 1

I would be grateful if you could indicate the recorded call for "O=C(COc1cccc(/C=C2\Oc3ccc4ccccc4c3C2=O)c1)c1ccc(Cl)cc1" .
class 0

// param item: "Cc1ncc(C(=O)Nc2ccc(CN3CCN(C)CC3)c(C(F)(F)F)c2)cc1C#Cc1c(N)ncc2ccccc12" ; yields the recorded call
class 0

What did this assay record as the result for "COc1ccc(Cn2cc3c(c2-c2cc(OC)c(OC)c(OC)c2)CCc2cnoc2-3)cc1N" ?
class 1

Name the outcome recorded for "COc1ccc(-c2ccc(-c3ccc(C(=N)N)cn3)o2)cc1Cl" in the assay.
class 0

How was "O=C(NNc1nc2cc(F)ccc2n2c(CN3CCCCC3)ccc12)c1cnccn1" classified in this test?
class 0

Tell me the recorded outcome of this test for CSc1ccc(SC2c3ccc(C)cc3Oc3nc(N)c(C#N)c(N)c32)cc1 (centres undefined) .
class 0

Which result was noted for this molecule in the test: "NC(=O)c1ccccc1NC(=O)c1ccccc1Cl"
class 0

---

test system: MDA-MB-468 breast; assay: NCI tumour cell line growth inhibition, 48 h
Please mark satisfied if the recorded TGI is equal to or greater than 3 µM, and not satisfied if it falls below.

Is the recorded value of TGI equal to or greater than 3 µM for this compound? "CC(C)C[C@H](NC(=O)[C@@H](NC(=O)c1cccc(-c2ccccc2)n1)[C@@H](C)O)B(O)O"
not satisfied

Is it the case that "O=C(NNc1nc2cc(F)ccc2n2c(CN3CCCCC3)ccc12)c1cnccn1" has TGI reaching or exceeding 3 µM?
satisfied

// inclusive: TGI at least 3 µM? input: "CCN(CC)CCn1c2ccc(OC)cc2c2sc3cc(OC)ccc3c(=O)c21"
satisfied

Form field: TGI at least 3 µM? Entry: "O=C(COc1cccc(/C=C2\Oc3ccc4ccccc4c3C2=O)c1)c1ccc(Cl)cc1"
satisfied

Decide: TGI of "CCOc1nccc2c1nc(-c1nonc1N)n2CC" >= 3 µM?
satisfied

Evaluate "CC(=O)Nc1ccc(NC(=O)Nc2cccc(-c3nc(-c4ccc(NC(=O)c5cccnc5)cc4Cl)no3)c2)cc1C(F)(F)F" : TGI at minimum 3 µM?
not satisfied

Given "COc1cc(F)c(/C=C/c2cc(/C=C/c3cc(OC)c(OC)cc3F)n(-c3cc(F)cc(F)c3)n2)cc1OC" , state whether its TGI is at least 3 µM.
satisfied

Evaluate "CC(C)C[C@H](NC(=O)CCn1ccc2ncccc2c1=O)B(O)O" : TGI at minimum 3 µM?
satisfied

// inclusive: TGI at least 3 µM? input: "NC(=O)c1ccccc1NC(=O)c1ccccc1Cl"
satisfied
